Taken from PubChem BioAssay (Tox21).

experiment: qHTS assay to identify small molecule antagonists of the sonic hedgehog signaling (Shh) pathway (AID 1259369); conditions: NIH/3T3 Gli1-Luc reporter, Shh antagonist, luminescence 24 h; series mostly up to 92.4 µM; also: nearly all actives have a fitted effect of over 45% in size
Records with an inconclusive call do not appear. Calls of active or inactive are those of the source. Calls follow the shape of the full dose curve.
Outcome codes: active, inactive

molecule: CCNS(=O)(=O)C(F)(F)C(F)(F)C(F)(F)C(F)(F)C(F)(F)C(F)(F)C(F)(F)C(F)(F)F
category label: active

molecule: CCCCn1cc[n+](C)c1 (tested in a mixture with another compound)
category label: inactive

molecule: Brc1ccc(Oc2ccc(Br)cc2Br)c(Br)c1
category label: inactive

molecule: O=S(=O)(NS(=O)(=O)C(F)(F)F)C(F)(F)F
category label: active

molecule: BrCC(Br)(Br)Br
category label: inactive

molecule: C[C@]12C/C(=C/O)C(=O)C[C@@H]1CC[C@@H]1[C@@H]2CC[C@@]2(C)[C@H]1CC[C@]2(C)O
category label: active

molecule: CCCCN(CCCC)C(=S)S
category label: inactive

molecule: CC[C@]1(O)CC[C@H]2[C@@H]3CCC4=CCCC[C@@H]4[C@H]3CC[C@@]21C
category label: active

molecule: O=S1(=O)OCC2C(CO1)C1(Cl)C(Cl)=C(Cl)C2(Cl)C1(Cl)Cl (stereo unspecified)
category label: inactive

molecule: ClC1=C(Cl)[C@]2(Cl)[C@@H]3[C@H]4C[C@H]([C@@H]5O[C@H]45)[C@@H]3[C@@]1(Cl)C2(Cl)Cl
category label: active

molecule: CCN(CC)CCc1c[nH]c2ccccc12
category label: active
